assay: Resistance index, ratio of IC50 for multi-drug-resistant Plasmodium falciparum K1 infected in human erythrocytes to IC50 for chloroquine-sensitive asexual Plasmodium falciparum NF54 infected in human erythrocytes; type: functional
Assign Ratio IC50 to each entry below.
Please give the numeric answer without any surrounding text.

Prompt: Ratio IC50 for C[C@H]1[C@H](OC(=O)CCC(=O)O)O[C@@H]2O[C@@]3(C)CC[C@H]4[C@H](C)CC[C@@H]1[C@@]24OO3 [ARTESUNATE] ?
Completion: 1.4

Prompt: Ratio IC50 for "CCCCCCCCCCOc1cc2c(=O)c(C(=O)NCCOCCO)c[nH]c2cc1OCC" ?
Completion: 1.6

Prompt: Ratio IC50 for CCCCCCCCCCOc1cc2c(O)c(C(=O)OCC)cnc2cc1OCC [DECOQUINATE] ?
Completion: 2.4

Prompt: Ratio IC50 for "CCCCCCCCCCOc1cc2c(=O)c(C(=O)OCC)cn(C(C)=O)c2cc1OCC" ?
Completion: 2.5

Prompt: Ratio IC50 for "CO[C@H]1O[C@@H]2O[C@@]3(C)CC[C@H]4[C@H](C)CC[C@@H]([C@H]1C)[C@@]24OO3" ?
Completion: 1.3

Prompt: Ratio IC50 for "CCCCCCCCCCOc1cc2c(=O)c(C(=O)OCC)cn(C(=O)CC)c2cc1OCC" ?
Completion: 3.2

Prompt: Ratio IC50 for "CCCCCCCCCCOc1cc2c(=O)c(C(=O)NCc3ccc(F)cc3)c[nH]c2cc1OCC" ?
Completion: 1.9

Prompt: Ratio IC50 for "CCCCCCCCCCOc1cc2c(=O)c(C(=O)OCC)cn(C(=O)N3CCCCC3)c2cc1OCC" ?
Completion: 4.9

---

assay: Acidic dissociation constant, pKa of compound; type: physicochemical
property label: pKa
Please give the numeric answer without any surrounding text.

Prompt: pKa for CCCCCCCCCCOc1cc2c(O)c(C(=O)OCC)cnc2cc1OCC [DECOQUINATE] ?
Completion: 9.81
